Tested on: rat mesangial cell line
Experiment: Effect on mesangial cell appearance (visual monitoring during proline assay)
Type: cell-based
Details: no concentration stated
Metric Name: Effect on mesangial cell appearance

COc1ccc(/C=C/C(=O)Nc2ccccc2C(=O)NCc2cn(CC(=O)Nc3ccccc3)nn2)cc1OC [Analogue 32]: Dead

====

Metric Name: melting point

CCN(CC)Cc1cc(/C=C/C(=O)Nc2ccccc2C(=O)O)ccc1OC: 202 to 205 °C
C#CCCOc1ccc(/C=C/C(=O)Nc2ccccc2C(=O)O)cc1OC: 178 to 180 °C
COc1ccc(/C=C/C(=O)Nc2cc(OC)c(OC)cc2C(=O)O)cc1OC: 236 to 239 °C
COc1ccc(/C=C/C(=O)Nc2ccc(Br)cc2C(=O)O)cc1OC: 210 to 213 °C
COc1ccc(CCC(=O)Nc2ccccc2C(=O)O)cc1OC: 137 °C

Q: Quickly give me recorded melting point for "COc1cc(/C=C/C(=O)Nc2ccccc2C(=O)O)ccc1O"
A: 207.5 to 208.5 °C

Q: Quickly give me recorded melting point for "COc1ccc(/C=C/C(=O)Nc2ccccc2C(=O)O)cc1O"
A: 215 to 216 °C

Q: Quickly give me recorded melting point for "C#CCCCOc1cc(/C=C/C(=O)Nc2ccccc2C(=O)O)ccc1OC"
A: 154 to 156 °C

Q: Quickly give me recorded melting point for "COc1ccc(/C=C/C(=O)Nc2ccccc2C(=O)O)cc1OC1CCCC1"
A: 211 to 217 °C

====

Metric Name: melting point

CCC#CCCOc1ccc(/C=C/C(=O)Nc2ccccc2C(=O)O)cc1OC [Analogue 39]: 165 to 166 °C

Q: Quickly give me recorded melting point for C#CCCCOc1ccc(/C=C/C(=O)Nc2ccccc2C(=O)O)cc1OC [Analogue 35]
A: 166.5 to 167.5 °C

Q: Quickly give me recorded melting point for CCC(CC)Oc1ccc(/C=C/C(=O)Nc2ccccc2C(=O)O)cc1OC [Analogue 45]
A: 82 to 85 °C

Q: Quickly give me recorded melting point for CCC#CCCOc1cc(/C=C/C(=O)Nc2ccccc2C(=O)O)ccc1OC [Analogue 40]
A: 163 to 165 °C

Q: Quickly give me recorded melting point for CC#CCOc1cc(/C=C/C(=O)Nc2ccccc2C(=O)O)ccc1OC [Analogue 23]
A: 170 to 171 °C

====

System: rat mesangial cell line
Test: Effect on mesangial cell appearance (visual monitoring during proline assay)
Assay type: cell-based
Settings: @ 100 μM
Metric Name: Effect on mesangial cell appearance

Below, 5 compounds whose answers are already recorded.
COc1cc(/C=C/C(=O)Nc2ccccc2C(=O)O)ccc1OCc1cn(CC(=O)Nc2ccccc2)nn1 [Analogue 20]: dead
C#CCCOc1cc(/C=C/C(=O)Nc2ccccc2C(=O)O)ccc1OC [Analogue 38]: Some death
CCC#CCCOc1cc(/C=C/C(=O)Nc2ccccc2C(=O)O)ccc1OC [Analogue 40]: dead
C#CCCOc1ccc(/C=C/C(=O)Nc2ccccc2C(=O)O)cc1OC [Analogue 37]: Some death
CC#CCOc1cc(/C=C/C(=O)Nc2ccccc2C(=O)O)ccc1OC [Analogue 23]: stress @

Q: Quickly give me recorded Effect on mesangial cell appearance for COc1ccc(/C=C/C(=O)Nc2ccccc2)cc1OC [Analogue 13]
A: sparse @

Q: Quickly give me recorded Effect on mesangial cell appearance for COc1cc(/C=C/C(=O)Nc2ccccc2C(=O)O)ccc1OC1CCCCC1 [Analogue 27]
A: lifting off

Q: Quickly give me recorded Effect on mesangial cell appearance for COc1ccc(/C=C/C(=O)Nc2ccccc2C(N)=O)cc1OC [Analogue 12]
A: sparse @

Q: Quickly give me recorded Effect on mesangial cell appearance for C#CCOc1ccc(/C=C/C(=O)Nc2ccccc2C(=O)O)cc1OC [Analogue 11]
A: stress @

Q: Quickly give me recorded Effect on mesangial cell appearance for COc1ccc(/C=C/C(=O)Nc2ccccc2C(=O)O)cc1OC [Analogue 1]
A: stress @

Q: Quickly give me recorded Effect on mesangial cell appearance for COc1cc(/C=C/C(=O)Nc2ccccc2C(=O)O)ccc1OC1CCCC1 [Analogue 26]
A: lifting off

Q: Quickly give me recorded Effect on mesangial cell appearance for CC#CCOc1ccc(/C=C/C(=O)Nc2ccccc2C(=O)O)cc1OC [Analogue 22]
A: dead

All figures here come from patent US9561201B2.
